These data points were gathered from patent EP4471049A1.

# MEASURED TARGET: T1, human IL-23R endogenously expressed on DB cells (human, UniProt Q5VWK5 24-629)
# T1 sequence (looked up): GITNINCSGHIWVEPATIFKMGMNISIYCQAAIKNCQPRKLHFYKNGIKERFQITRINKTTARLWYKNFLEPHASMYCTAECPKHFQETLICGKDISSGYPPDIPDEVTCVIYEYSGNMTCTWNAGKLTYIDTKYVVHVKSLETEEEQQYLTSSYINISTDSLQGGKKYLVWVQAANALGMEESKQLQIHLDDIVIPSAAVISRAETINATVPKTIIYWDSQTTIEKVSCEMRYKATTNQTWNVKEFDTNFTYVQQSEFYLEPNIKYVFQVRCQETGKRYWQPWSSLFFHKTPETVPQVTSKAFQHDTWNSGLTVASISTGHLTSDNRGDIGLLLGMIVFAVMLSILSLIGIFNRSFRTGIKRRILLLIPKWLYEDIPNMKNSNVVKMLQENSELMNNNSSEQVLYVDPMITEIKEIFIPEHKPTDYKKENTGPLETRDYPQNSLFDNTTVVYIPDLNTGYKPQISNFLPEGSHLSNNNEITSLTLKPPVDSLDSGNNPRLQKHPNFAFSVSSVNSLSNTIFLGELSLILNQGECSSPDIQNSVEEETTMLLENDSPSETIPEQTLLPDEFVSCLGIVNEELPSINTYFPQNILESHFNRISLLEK
# ASSAY OVERVIEW: cell-based or functional assay
*1 amine or outer side, *2 acyl side, *3 side chain or, on linkers, in order; H or OH if unused. Bridges are numbered along the chain shown (N, C = ends). Where no end group is shown, it is not given here. [ ]: non-standard residue; d: D form. 4‑Aminomethyl‑phenylacetyl = 4-aminomethyl-phenylacetyl unit, its amine closes the lactam, O=C(Cc1ccc(CN[*:1])cc1)[*:2]; 2Nal = N[C@@H](Cc1ccc2ccccc2c1)C(=O)O; AEF = NCCOc1ccc(C[C@H](N)C(=O)O)cc1; 3Pal = N[C@@H](Cc1cccnc1)C(=O)O; αMeL = CC(C)C[C@](C)(N)C(=O)O; Dab = NCC[C@H](N)C(=O)O
Documented hIL-23 (pSTAT3) antagonist % inhibition across a set of binders
Enter your answer as a number in %; do not include the unit.

Completed entries (count: 2):
[4‑Aminomethyl‑phenylacetyl]SCWQC[AEF][2Nal][αMeL]ES-NH2 (lactam (positions not given here); bridge 3-6; not fully specified (bridges); printed as [4-Aminomethyl-phenylacetyl](1c)*SC(2a)WQC(2a)[Y(2-aminoethoxy)][2-Nal][2-Me-Leu]E(1c)S-[NH2], Y = Y(2-aminoethoxy)) [Ref 81] : 95
H-DESCWQCWWLKR-NH2 (lactam 2-11; bridge 4-7; not fully specified (bridges)) [Ref 4] : 87

Input: Using the record for [4‑Aminomethyl‑phenylacetyl]FEWQ[Dab][AEF][2Nal][αMeL]E[Dab][3Pal]-NHMe (lactam N-10, 3-6; SMILES CNC(=O)[C@H](Cc1cccnc1)NC(=O)[C@H](CCN)NC(=O)[C@@H]1CCC(=O)NCc2ccc(cc2)CC(=O)N[C@@H](Cc2ccccc2)C(=O)N[C@H]2CCC(=O)NCC[C@H](NC(=O)[C@H](CCC(N)=O)NC(=O)[C@H](Cc3c[nH]c4ccccc34)NC2=O)C(=O)N[C@@H](Cc2ccc(OCCN)cc2)C(=O)N[C@@H](Cc2ccc3ccccc3c2)C(=O)N[C@@](C)(CC(C)C)C(=O)N1) [Compound 21] , state its measured hIL-23 (pSTAT3) antagonist % inhibition.
Output: 102
